Catalogue of CC50 readings, one per entry.
# assay-method-text: in vitro
# condition: dog

{"compound": "OCc1cn(C2CC(O)C(CO)C3CC32)nn1 (stereo not shown)", "CC50": "> 50 µg/mL"}
{"compound": "NC(=O)c1ncn([C@@H]2O[C@H](CO)[C@@H](O)[C@H]2O)n1 [Ribavirin, reference compound]", "CC50": "> 100 µM"}
{"compound": "OCC1C(O)CC(n2cc(-c3ccccc3)nn2)C2CC12 (stereo not shown)", "CC50": "20.4 µg/mL"}
{"compound": "NC(=O)c1nnn(C2CC(O)C(CO)C3CC32)c1N (stereo not shown)", "CC50": "> 50 µg/mL"}
{"compound": "Nc1nc2c(ncn2C2CC(O)C(CO)C3CC32)c(=O)[nH]1 (stereo not shown)", "CC50": "> 50 µg/mL"}
{"compound": "CC(N)C12CC3CC(CC(C3)C1)C2 (stereo not shown) [Rimantadine, reference compound]", "CC50": "> 200 µM"}
{"compound": "NC(=O)c1cn(C2CC(O)C(CO)C3CC32)nn1 (stereo not shown)", "CC50": "> 50 µg/mL"}
{"compound": "Cc1cn(C2CC(O)C(CO)C3CC32)c(=O)[nH]c1=O (stereo not shown)", "CC50": "> 50 µg/mL"}
{"compound": "CC(=O)N[C@H]1[C@H]([C@H](O)[C@H](O)CO)OC(C(=O)O)=C[C@@H]1N=C(N)N [Zanamivir, reference compound]", "CC50": "> 100 µM"}
{"compound": "Cc1cn(C2CC=C(CO)C3CC32)c(=O)[nH]c1=O (stereo not shown)", "CC50": "18.6 µg/mL"}

----------
Catalogue of CC50 readings, one per entry.
# assay-method-text: Cytotoxicity in MT-4 cell cultures (MTS)
# condition: human, Cytotoxixity CC50, MT-4 cell cultures, MTS assay
measurement-name: CC50

{"compound": "NC(=O)c1nnn(C2CC(O)C(CO)C3CC32)c1N (stereo not drawn)", "endpoint-result": "> 125 µg/mL"}
{"compound": "OCc1cn(C2CC(O)C(CO)C3CC32)nn1 (stereo not drawn)", "endpoint-result": "≥ 116 µg/mL"}
{"compound": "Cc1cn(C2CC(O)C(CO)C3CC32)c(=O)[nH]c1=O (stereo not drawn)", "endpoint-result": "99.1 µg/mL"}
{"compound": "Cc1cn(C2CC=C(CO)C3CC32)c(=O)[nH]c1=O (stereo not drawn)", "endpoint-result": "109 µg/mL"}
{"compound": "Nc1nc2c(ncn2C2CC(O)C(CO)C3CC32)c(=O)[nH]1 (stereo not drawn)", "endpoint-result": "> 125 µg/mL"}
{"compound": "O=c1[nH]cnc2c1ncn2[C@H]1CC[C@@H](CO)O1 [Didanosine, reference compound]", "endpoint-result": "> 50 µg/mL"}
{"compound": "NC(=O)c1cn(C2CC(O)C(CO)C3CC32)nn1 (stereo not drawn)", "endpoint-result": "> 125 µg/mL"}
{"compound": "OCC1C(O)CC(n2cc(-c3ccccc3)nn2)C2CC12 (stereo not drawn)", "endpoint-result": "96.2 µg/mL"}
{"compound": "Cc1cn([C@H]2C[C@H](N=[N+]=[N-])[C@@H](CO)O2)c(=O)[nH]c1=O [Zidovudine, reference compound]", "endpoint-result": "> 2 µg/mL"}

----------
# System: Human immunodeficiency virus (ROD)
# assay-method-text: Antiviral CPE assay, HIV-2 (ROD) in MT-4 cells
# Assay type: cell-based
# condition: Human immunodeficiency virus 2, MT4
measurement-name: EC50

{"molecule": "NC(=O)c1cn(C2CC(O)C(CO)C3CC32)nn1 (stereo not drawn) [Compound 3a]", "endpoint-result": "> 125 µg/mL"}
{"molecule": "Cc1cn(C2CC(O)C(CO)C3CC32)c(=O)[nH]c1=O (stereo not drawn) [Compound 1a]", "endpoint-result": "> 99.1 µg/mL"}
{"molecule": "Nc1nc2c(ncn2C2CC(O)C(CO)C3CC32)c(=O)[nH]1 (stereo not drawn) [Compound 1b]", "endpoint-result": "> 125 µg/mL"}

----------
Catalogue of EC50 readings, one per entry.
# System: Herpes simplex virus-2 (G)
# assay-method-text: microbe, parasite or virus in culture
# Type: cell-based
# condition: Human alphaherpesvirus 2, HEL, read-out: Antiviral EC50 Herpes simplex virus-2 (G)

{"compound": "Cc1cn(C2CC=C(CO)C3CC32)c(=O)[nH]c1=O (stereo not shown)", "EC50": "> 50 µg/mL"}
{"compound": "Nc1nc2c(ncn2C2CC(O)C(CO)C3CC32)c(=O)[nH]1 (stereo not shown)", "EC50": "> 50 µg/mL"}
{"compound": "O=c1[nH]c(=O)n([C@H]2C[C@H](O)[C@@H](CO)O2)cc1/C=C/Br [Brivudin, reference compound]", "EC50": "22.1 µM"}
{"compound": "Nc1nc2c(ncn2COCCO)c(=O)[nH]1 [Acyclovir, reference compound]", "EC50": "0.5 µM"}
